B1: HDV Ribozyme (parent)
chain: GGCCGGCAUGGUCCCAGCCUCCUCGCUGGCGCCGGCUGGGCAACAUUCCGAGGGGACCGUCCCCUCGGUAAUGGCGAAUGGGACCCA

Variants of: B1
Test: self-cleavage, relative activity (ratio to wild type); higher = more cleavage; co-transcriptional
parameter measured: self-cleavage

| polymer sequence | parameter measured | recorded result |
| --- | --- | --- |
| GGCCGGCAUGGUCCCAGCCUCCUCGCUGGCGCCGGCUGGGCAACAUUCCGAGCGGACCGUCCCCUCGGUAAUGGCGAAUGGAACCCA [G53C G82A] | self-cleavage | 0.383 |
| CGCCGGCAUGGUCCCAGCCUCCUCGCUGGCGCCGGCUGGGCAACAUUCCGAGGGGACCGUCCCCUCGGUAAUGGCGAAUGGGGCCCA [G1C A83G] | self-cleavage | 0.151 |
| GGCCGGCAUGGUCCCAGCCUCCUCGCUGGCGCCGGCUGGGCAACAUUCCGAUGGGACCGUCCCCUCGGGAAUGGCGAAUGGGACCCA [G52U U69G] | self-cleavage | 1.19 |
| GGACGGCAUGGUCCCAGCCUCCUCGCUGGCGCCGGCUGGGCAACAUUCCGAGGGGGCCGUCCCCUCGGUAAUGGCGAAUGGGACCCA [C3A A56G] | self-cleavage | 0.632 |
| GGACGGCAUGGUCCCAGCCUCCUCGCUGGCGCCGGCUGGGCAACAUUCCGAGGGGACCGUCCCCUCGGAAAUGGCGAAUGGGACCCA [C3A U69A] | self-cleavage | 0.406 |
| GGCCGGCAUCGUCCCAGCCUCGUCGCUGGCGCCGGCUGGGCAACAUUCCGAGGGGACCGUCCCCUCGGUAAUGGCGAAUGGGACCCA [G10C C22G] | self-cleavage | 0 |
| GGCCGGCAUGGUCCCAGCCUCCUCGCUGGCGCCGGCUGGGCAAUAUUCAGAGGGGACCGUCCCCUCGGUAAUGGCGAAUGGGACCCA [C44U C49A] | self-cleavage | 0.892 |
| GGCCGGCAUGGUCCCAGCCUCCUCGCUGGCGCCGGCUGGGCAACAUUCCGAGGGGACCGUCCACUCGGUAACGGCGAAUGGGACCCA [C63A U72C] | self-cleavage | 0.532 |
| GGCCGGCAUGGGCCCAGCCUCGUCGCUGGCGCCGGCUGGGCAACAUUCCGAGGGGACCGUCCCCUCGGUAAUGGCGAAUGGGACCCA [U12G C22G] | self-cleavage | 0 |
| GGCCGGCAUGGUCCCAGCCUCCUCGCUGGCGGCGGCUGGGCAACAUUCCGAGGGGACCGUCCCCUCGGUAAUGGCGAAUGGGGCCCA [C32G A83G] | self-cleavage | 0 |
| GGCCGGCAUGGUCCCAGCCUCCCCGCUGGCGCCGGCUGUGCAACAUUCCGAGGGGACCGUCCCCUCGGUAAUGGCGAAUGGGACCCA [U23C G39U] | self-cleavage | 0.716 |
| GGCCGGCAUGGUACCAGCCUCCUCGCUGGCGCCGGCUGGGCAACAUUCCGAGGGGACCGUCCCCUAGGUAAUGGCGAAUGGGACCCA [C13A C66A] | self-cleavage | 0.125 |
| GGCCGGCAUGGUUCCAGCCUCCUCGCUGGCGCCGGCUGGGCAACAUUCCGAGGGGACCGUCCCAUCGGUAAUGGCGAAUGGGACCCA [C13U C64A] | self-cleavage | 0.807 |
| GGCCGGCAUGGUCCCAGCCUCCUCGCUCGCGCCGGCUGGGCAACAUUCCGAGGGGACCGUCCCUUCGGUAAUGGCGAAUGGGACCCA [G28C C64U] | self-cleavage | 0.198 |
